These measurements were taken from ChEMBL document CHEMBL1149343.

test system: T98G; test: Cytotoxicity against human T98G cell line; format: functional, cell-based
pIC50: −log10 of the molar value.

COMPOUND: Oc1cc2c(cc1O)C(Cc1ccc(-c3ccccc3)cc1)NCC2 (stereo unspecified)
pIC50: 4.99

###

test system: U-87 MG; assay: Cytotoxicity against human U87 cell line; type: functional, cell-based, U-87MG ATCC

COMPOUND: Oc1cc2c(cc1O)C(Cc1ccc(-c3ccccc3)cc1)NCC2 (stereo unspecified)
TEST TARGET: U-87 MG
READOUT UNITS: µM
IC50: 25.9

###

system: C6; test: Cytotoxicity against rat C6 glioma cell line; assay type: functional, cell-based
pIC50: −log10 of the molar value.
QUANTITY NAME: pIC50

COMPOUND: CCC(C)N(C)C(=O)c1cc2ccccc2c(-c2ccccc2Cl)n1 (stereo unspecified)
QUANTITY NAME: pIC50
RELATION: =
RECORDED RESULT: 4.14
//
COMPOUND: C=C1C(OC(=O)N(C)C)=C(c2ccc(C)cc2)Oc2cc(Cl)ccc2N1C
QUANTITY NAME: pIC50
RELATION: =
RECORDED RESULT: 4.43
//
COMPOUND: CN1CCc2cc(O)c(O)cc2C1Cc1ccc(-c2ccccc2)cc1 (stereo unspecified)
QUANTITY NAME: pIC50
RELATION: =
RECORDED RESULT: 5.10
//
COMPOUND: COc1cc2c(cc1OC)CN(CCc1ccc(-c3ccccc3)cc1)CC2
QUANTITY NAME: pIC50
RELATION: =
RECORDED RESULT: 5.03
//
COMPOUND: O=c1[nH]cc(F)c(=O)[nH]1
QUANTITY NAME: pIC50
RELATION: =
RECORDED RESULT: 5.21
//
COMPOUND: COc1cc2c(cc1OC)C(Cc1ccc(C(=O)c3ccccc3)cc1)NCC2 (stereo unspecified)
QUANTITY NAME: pIC50
RELATION: =
RECORDED RESULT: 4.40
//
COMPOUND: COc1cc(C(O)C2CNCCc3cc(O)c(O)cc32)cc(OC)c1OC (stereo unspecified)
QUANTITY NAME: pIC50
RELATION: <
RECORDED RESULT: 4.30
//
COMPOUND: CN1C(=O)CN=C(c2ccc(Cl)cc2)c2cc(Cl)ccc21
QUANTITY NAME: pIC50
RELATION: =
RECORDED RESULT: 4.02
//
COMPOUND: COc1cc2c(cc1OC)C(Cc1ccc(-c3ccccc3)cc1)NCC2 (stereo unspecified)
QUANTITY NAME: pIC50
RELATION: =
RECORDED RESULT: 5.39
//
COMPOUND: COc1ccc(CCN(C)CCc2ccc(-c3ccccc3)cc2)cc1OC
QUANTITY NAME: pIC50
RELATION: =
RECORDED RESULT: 4.90
//
COMPOUND: Oc1cc2c(cc1O)C(Cc1ccc(-c3ccccc3)cc1)NCC2 (stereo unspecified)
QUANTITY NAME: pIC50
RELATION: =
RECORDED RESULT: 5.59
